- Tested on: P21
- testSummary: p21 induction in HeLa cells (Western Blot)
- Assay type: cell-based
- Design: key: represented by the symbol ‘+’ which indicates the relative extent of modulation; ++: represented by the symbol ‘+’ which indicates the relative extent of modulation; +++: represented by the symbol ‘+’ which indicates the relative extent of modulation; ++++: represented by the symbol ‘+’ which indicates the relative extent of modulation
- testSettings: 24 hrs, 0.03-3.0 μM
Structures can show the parent of a compound that is named as a salt.
propertyMeasured: P21 induction

As a guide, the following entries are already answered.
[
  {
    "compound": "O=C(/C=C/c1ccc(Cn2cc(-c3ccc(CN4CCCC4)cc3)nn2)cc1)NO",
    "systemName": "P21",
    "reportedValue": "+"
  },
  {
    "compound": "O=C(NO)c1ccc(Cn2cc(-c3ccc(CN4CCOCC4)cc3)nn2)cc1",
    "systemName": "P21",
    "reportedValue": "+"
  },
  {
    "compound": "O=C(NO)c1ccc(Cn2cc(-c3ccc(CN4CCCC4)cc3)nn2)cc1",
    "systemName": "P21",
    "reportedValue": "+"
  },
  {
    "compound": "O=C(CCCCCCC(=O)Nc1ccccc1)NO [SAHA, Suberoylanilide Hydroxamic Acid, reference compound]",
    "systemName": "P21",
    "reportedValue": "+++"
  }
]

Query string: P21 induction for O=C(/C=C/c1cccc(Cn2cc(-c3ccc(CN4CCOCC4)cc3)nn2)c1)NO [Example 25, hydrochloride] ?
Result string: ++

----------
- Tested on: ACHN
- testSummary: Anti-proliferative activity (GI50)
- Assay type: cell-based
- testSettings: Homo sapiens, Table 9, Renal, read-out: Anti-proliferative activity (GI50) ACHN
Counter-ions that a name gives are not always drawn.
GI50 by entry:
// return numeric value only (unit: nM, not printed)

Field: example entries. Status: answers known.
[
  {
    "compound": "CN(C)Cc1ccc(-c2cn(Cc3ccc(/C=C/C(=O)NO)cc3)nn2)cc1",
    "GI50 (nM)": 100
  },
  {
    "compound": "O=C(/C=C/c1cccc(Cn2cc(-c3ccc(CN4CCOCC4)cc3)nn2)c1)NO [Example 25, hydrochloride]",
    "GI50 (nM)": 200
  },
  {
    "compound": "O=C(NO)c1ccc(Cn2cc(-c3ccc(CN4CCCC4)cc3)nn2)cc1",
    "GI50 (nM)": 300
  },
  {
    "compound": "O=C(/C=C/c1ccc(Cn2cc(-c3ccc(CN4CCCC4)cc3)nn2)cc1)NO",
    "GI50 (nM)": 90
  }
]

Query string: Which value of GI50 has been reported for O=C(NO)c1ccc(Cn2cc(-c3ccc(CN4CCOCC4)cc3)nn2)cc1 in the records?
Result string: 700

----------
- systemName: CYP 2D6 (Homo sapiens, UniProt P10635)
- Construct: purchased
- Sequence (P10635 whole entry): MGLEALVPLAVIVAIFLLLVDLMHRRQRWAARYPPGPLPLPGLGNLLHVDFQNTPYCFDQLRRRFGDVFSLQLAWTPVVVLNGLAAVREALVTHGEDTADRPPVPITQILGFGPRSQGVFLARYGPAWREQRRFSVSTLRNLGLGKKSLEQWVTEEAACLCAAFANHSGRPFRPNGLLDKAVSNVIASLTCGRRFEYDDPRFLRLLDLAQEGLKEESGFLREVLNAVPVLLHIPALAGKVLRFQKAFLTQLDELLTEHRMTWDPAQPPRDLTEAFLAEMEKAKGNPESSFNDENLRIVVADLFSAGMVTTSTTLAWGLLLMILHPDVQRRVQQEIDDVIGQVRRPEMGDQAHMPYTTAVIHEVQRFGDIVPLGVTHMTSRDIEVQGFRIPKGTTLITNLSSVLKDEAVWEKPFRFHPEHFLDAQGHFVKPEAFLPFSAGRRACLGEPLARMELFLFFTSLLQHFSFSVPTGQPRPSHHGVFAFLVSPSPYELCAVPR
- testSummary: Cytochrome-P450 isoforms liability determination
- Assay type: in vitro ADME
- testSettings: fluorescence based kit; read-out: CYP liability (IC50 in μM) CYP 2D6
Structures can show the parent of a compound that is named as a salt.
propertyMeasured: IC50

Some solved cases for reference:
[
  {
    "compound": "CN(C)Cc1ccc(-c2cn(Cc3ccc(/C=C/C(=O)NO)cc3)nn2)cc1",
    "systemName": "CYP 2D6 (Homo sapiens, UniProt P10635)",
    "reportedValue": "> 60 µM"
  },
  {
    "compound": "O=C(NO)c1ccc(Cn2cc(-c3ccc(CN4CCCC4)cc3)nn2)cc1",
    "systemName": "CYP 2D6 (Homo sapiens, UniProt P10635)",
    "reportedValue": "26 µM"
  },
  {
    "compound": "O=C(/C=C/c1cccc(Cn2cc(-c3ccc(CN4CCOCC4)cc3)nn2)c1)NO [Example 25, hydrochloride]",
    "systemName": "CYP 2D6 (Homo sapiens, UniProt P10635)",
    "reportedValue": "> 60 µM"
  },
  {
    "compound": "O=C(/C=C/c1ccc(Cn2cc(-c3ccc(CN4CCCC4)cc3)nn2)cc1)NO",
    "systemName": "CYP 2D6 (Homo sapiens, UniProt P10635)",
    "reportedValue": "13.2 µM"
  }
]

Here is another compound to look at.
Query string: What value of IC50 has been recorded for this entry: O=C(NO)c1ccc(Cn2cc(-c3ccc(CN4CCOCC4)cc3)nn2)cc1
Result string: > 60 µM
